TARGET DESC: 14-3-3γ (Homo sapiens, UniProt P61981)
Construct: made in house; host or cells: E. coli NiCo21 (DE3)
Sequence (P61981 whole entry): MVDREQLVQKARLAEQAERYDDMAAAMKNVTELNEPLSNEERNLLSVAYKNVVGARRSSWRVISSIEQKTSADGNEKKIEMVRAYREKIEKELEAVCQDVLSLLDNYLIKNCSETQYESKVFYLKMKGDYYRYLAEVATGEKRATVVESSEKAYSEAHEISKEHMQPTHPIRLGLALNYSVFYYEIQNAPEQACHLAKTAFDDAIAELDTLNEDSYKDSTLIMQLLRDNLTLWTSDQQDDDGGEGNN
ASSAY METHOD TEXT: Fluorescence anisotropy (FA) binary binding study: 14-3-3 titrated to fluorescein-labelled peptide
TEST PARAMETERS: Table S4; from FA Kd; replicate 2
Where a SMILES comes first, the peptide text is derived from it. [ ]: non-standard residue; d: D form. ξ: configuration not given here. Phe(4-NO2) = N[C@@H](Cc1ccc([N+](=O)[O-])cc1)C(=O)O; ξAla(4-thiazolyl) = NC(Cc1cscn1)C(=O)O; pS = N[C@@H](COP(=O)(O)O)C(=O)O; β3hS = N[C@@H](CO)CC(=O)O; Nva = CCC[C@H](N)C(=O)O; βAla = NCCC(=O)O
MEASUREMENT NAME: ΔG

Entry under review: CCC[C@H](NC(=O)[C@H](N)CCCCN)C(=O)N[C@@H](Cc1ccc([N+](=O)[O-])cc1)C(=O)NC(Cc1cscn1)C(=O)N[C@@H](COP(=O)(O)O)C(=O)N[C@@H](Cc1ccc([N+](=O)[O-])cc1)C(=O)N[C@@H](CO)CC(=O)NCCC(=O)N[C@@H](Cc1ccc(O)cc1)C(=O)N[C@@H](CCCCN)C(N)=O (stereo partly drawn) [5a] (H-[dK][Nva][Phe(4-NO2)][ξAla(4-thiazolyl)][pS][Phe(4-NO2)][β3hS][βAla]YK-NH2; N-terminus and C-terminus assumed) . Reported ΔG?
-8.1 kcal/mol

====

TARGET DESC: 14-3-3γ (Homo sapiens)
Construct: made in house; host or cells: E. coli NiCo21 (DE3)
ASSAY METHOD TEXT: Fluorescence anisotropy (FA) binary binding study: 14-3-3 titrated to fluorescein-labelled peptide
TEST PARAMETERS: Table S3; KD / KD of previous peptide; replicate 1
Description: 14-3-3γ protein expression (FP/ITC experiments) A pPROEX HTb expression vector encoding the human 14-3-3 protein gamma (14-3-3γ) with an N-terminal his6-tag was transformed by heat shock into NiCo21 (DE3) competent cells. Single colonies were cultured in 50 mL LB medium (100 µg/mL ampicillin). After overnight incubation at 37 °C, cultures were transferred to 2 L TB media (100 µg/mL ampicillin, 1 mM MgCl2) and incubated at 37 °C until an OD600 nm of 0.8-1.2 was reached. […]
Where a SMILES comes first, the peptide text is derived from it. [ ]: non-standard residue; d: D form. The star is where a group is joined. ξ: configuration not given here. FITC = O=C1OC2(c3ccc(O)cc3Oc3cc(O)ccc32)c2ccc(NC(=S)*)cc21; Phe(4-NO2) = N[C@@H](Cc1ccc([N+](=O)[O-])cc1)C(=O)O; ξAla(4-thiazolyl) = NC(Cc1cscn1)C(=O)O; pS = N[C@@H](COP(=O)(O)O)C(=O)O; β3hS = N[C@@H](CO)CC(=O)O; Nva = CCC[C@H](N)C(=O)O; AEA = NCCOCC(=O)O; βAla = NCCC(=O)O
# Fold change to previous listing for each entry below

CCC[C@H](NC(=O)[C@@H](CCCCN)NC(=O)COCCNC(=S)Nc1ccc2c(c1)C(=O)OC21c2ccc(O)cc2Oc2cc(O)ccc21)C(=O)N[C@@H](Cc1ccc([N+](=O)[O-])cc1)C(=O)NC(Cc1cscn1)C(=O)N[C@@H](COP(=O)(O)O)C(=O)N[C@@H](Cc1ccc([N+](=O)[O-])cc1)C(N)=O (stereo partly shown) [2h] ({FITC-AEA}-[dK][Nva][Phe(4-NO2)][ξAla(4-thiazolyl)][pS][Phe(4-NO2)]-NH2)
2,91
CCC[C@H](NC(=O)[C@@H](CCCCN)NC(=O)COCCNC(=S)Nc1ccc2c(c1)C(=O)OC21c2ccc(O)cc2Oc2cc(O)ccc21)C(=O)N[C@@H](Cc1ccc([N+](=O)[O-])cc1)C(=O)NC(Cc1cscn1)C(=O)N[C@@H](COP(=O)(O)O)C(=O)N[C@@H](Cc1ccc([N+](=O)[O-])cc1)C(=O)N[C@@H](CO)CC(=O)NCCC(=O)N[C@@H](Cc1ccc([N+](=O)[O-])cc1)C(N)=O (stereo partly drawn) [2e] ({FITC-AEA}-[dK][Nva][Phe(4-NO2)][ξAla(4-thiazolyl)][pS][Phe(4-NO2)][β3hS][βAla][Phe(4-NO2)]-NH2)
5,54
CCC[C@H](NC(=O)[C@@H](CCCCN)NC(=O)COCCNC(=S)Nc1ccc2c(c1)C(=O)OC21c2ccc(O)cc2Oc2cc(O)ccc21)C(=O)N[C@@H](Cc1ccc([N+](=O)[O-])cc1)C(=O)NC(Cc1cscn1)C(=O)N[C@@H](COP(=O)(O)O)C(N)=O (stereo partly shown) [2i] ({FITC-AEA}-[dK][Nva][Phe(4-NO2)][ξAla(4-thiazolyl)][pS]-NH2)
4,23

The record that follows has no Fold change to previous shown yet.
Quick one: Fold change to previous for CCC[C@H](NC(=O)[C@@H](CCCCN)NC(=O)COCCNC(=S)Nc1ccc2c(c1)C(=O)OC21c2ccc(O)cc2Oc2cc(O)ccc21)C(=O)N[C@@H](Cc1ccc([N+](=O)[O-])cc1)C(=O)NC(Cc1cscn1)C(=O)N[C@@H](COP(=O)(O)O)C(=O)N[C@@H](Cc1ccc([N+](=O)[O-])cc1)C(=O)N[C@@H](CO)CC(N)=O (stereo partly drawn) [2g] ({FITC-AEA}-[dK][Nva][Phe(4-NO2)][ξAla(4-thiazolyl)][pS][Phe(4-NO2)][β3hS]-NH2) ?
1,92
